Tested on: U-251
Experiment: NCI tumour cell line growth inhibition, 48 h
Activity calls are given as the source filed them. Cut-off read from the data, not from the text of the source: active = GI50 up to about 1.1 µM and inactive = higher.
Kindly state GI50 for each of the entries shown.

{"COMPOUND": "COc1ccc2cc(CNCCCCCCCCNCc3ccc4cc(OC)ccc4c3)ccc2c1", "GI50": "3.66 µM (inactive)"}
{"COMPOUND": "COC(=O)c1ccccc1NC(=O)C(=O)CC(=O)c1ccccc1NC1=CC(=O)C(=O)c2ccccc21", "GI50": "11.1 µM (inactive)"}
{"COMPOUND": "CCOC(=O)CN(Cc1ccccc1)Cc1c(C(=O)c2ccccc2)c2ccccc2n1C(=O)c1ccccc1", "GI50": "> 100 µM (inactive)"}
{"COMPOUND": "C=C(CO)[C@H]1CC/C(C)=C/CC/C(C)=C/C/C=C(\\C)[C@H](O)C1", "GI50": "19.1 µM (inactive)"}
{"COMPOUND": "CCSCCCN(CCCSCC)CCCSCC", "GI50": "> 100 µM (inactive)"}

Would you be so kind as to report GI50 for each listed record?
1. O=S(=O)(SC1=NCCN1)c1ccc2ccccc2c1
2. COc1cc(C(=O)n2c3ccc(Br)cc3c3nc4ccccc4nc32)cc(OC)c1OC
3. CCOC(=O)/C(O)=C/c1cc(OC)cc(=O)o1
4. COc1cccc(N2C(=O)C3c4[nH]c5ccc(C)cc5c4C4CCC(C(C)(C)C)CC4C3C2=O)c1 (stereo not given)
5. Cn1c2c(c3ccccc31)C1C(=O)N(c3ccccc3)C(=O)C1CC2 (stereo not given)
6. CC(=O)CC(=O)N1CCSC1=S
7. Cc1c2c(cc3c1[nH]c1ccccc13)C(c1ccc(F)cc1)=NCC2

Reply:
23.8 µM (inactive)
> 100 µM (inactive)
> 100 µM (inactive)
3.52 µM (inactive)
> 303 µM (inactive)
> 10 µM (inactive)
1.43 µM (inactive)

====

Test system: OVCAR-4
Test: NCI tumour cell line growth inhibition, 48 h
Calls of active or inactive are those of the source. Cut-off read from the data, not from the text of the source: active = GI50 up to about 1.1 µM and inactive = higher.
Kindly state GI50 for each of the entries shown.

Completed entries (count: 3):
{"MOLECULE": "CC1=C(C(=O)Nc2cc(F)c(F)cc2F)C(c2ccc(N(C)C)cc2)C(C(=O)Nc2cc(F)c(F)cc2F)=C(C)N1", "GI50": "17.7 µM (inactive)"}
{"MOLECULE": "COP1(=S)OCC2CCC[C@@H]2O1 (stereo not given in full)", "GI50": "> 100 µM (inactive)"}
{"MOLECULE": "CCOc1ccc(/N=N/c2c(-c3ccccc3)nn(C(=O)CC(=O)Nc3cccc(C)c3)c2-c2ccccc2)cc1", "GI50": "> 100 µM (inactive)"}

Would you be so kind as to report GI50 for each listed record?
1. COc1cc(OC)cc(C(=O)Cc2c(C(=O)c3ccccc3)c3ccccc3n2C(=O)c2ccccc2)c1
2. CO/C(N)=C(C#N)/N=C/c1cccs1

Reply:
1. 15.3 µM (inactive)
2. > 100 µM (inactive)

====

Kindly state GI50 for each of the entries shown.
Test system: SR
Assay: NCI tumour cell line growth inhibition, 48 h
Calls of active or inactive are those of the source. Rule as the data show it: active = GI50 up to about 1.1 µM and inactive = higher.

Completed entries (count: 5):
{"MOLECULE": "COC(=O)c1cc2c3ccccc3n(C(C)=O)c2cn1", "GI50": "45.6 µM (inactive)"}
{"MOLECULE": "CC1Oc2c(c(=O)oc3ccccc23)[C@@]1(C)CC1C[C@H](C)C(=O)O1 (some centres undefined)", "GI50": "> 10 µM (inactive)"}
{"MOLECULE": "Cc1cn(C2CC3C(COCN3O)O2)c(=O)[nH]c1=O (centres undefined)", "GI50": "> 100 µM (inactive)"}
{"MOLECULE": "CC(C)C1CC[C@H](C)C[C@@H]1OC(=O)C(C(=O)O[C@H]1C[C@@H](C)CCC1C(C)C)C(O)[C@@H]1OC(C)(C)O[C@H]1C1COC(C)(C)O1 (some centres undefined)", "GI50": "9.62 µM (inactive)"}
{"MOLECULE": "CCOCC(=O)N[C@H]1CCc2cc(OC)c(OC)c(OC)c2-c2ccc(OC)c(=O)cc21", "GI50": "< 0.0206 µM (active)"}

Would you be so kind as to report GI50 for each listed record?
1. C[P+](C)(C)C
2. CCc1c(O)c(O)c(C(C)=O)c2c(O)c(-c3c(C)cc4c(CC)c(O)c(O)c(C(C)=O)c4c3O)c(C)cc12
3. CCNC(=O)/C=C/CCC#Cc1ccc(-c2ccc(-c3cccs3)s2)s1

Reply:
1: > 100 µM (inactive); 2: 38.3 µM (inactive); 3: > 100 µM (inactive)

Task item: Which measured GI50 value corresponds to CC(C)(C)OC(=O)C1CCC/C1=N/Nc1ccc([N+](=O)[O-])cc1[N+](=O)[O-] (centres undefined) ?
Reply: 26.1 µM (inactive)

Origin of the recorded values: ChEMBL document CHEMBL1201862
